# Assayed System: T1, human IL-12RB2 with C-terminal HA tag, transiently expressed on HEK-293T cells (human, UniProt Q99665 24-862)
# T1 construct: whole, on cells; also called human IL-12Rβ2
# T1 sequence (looked up): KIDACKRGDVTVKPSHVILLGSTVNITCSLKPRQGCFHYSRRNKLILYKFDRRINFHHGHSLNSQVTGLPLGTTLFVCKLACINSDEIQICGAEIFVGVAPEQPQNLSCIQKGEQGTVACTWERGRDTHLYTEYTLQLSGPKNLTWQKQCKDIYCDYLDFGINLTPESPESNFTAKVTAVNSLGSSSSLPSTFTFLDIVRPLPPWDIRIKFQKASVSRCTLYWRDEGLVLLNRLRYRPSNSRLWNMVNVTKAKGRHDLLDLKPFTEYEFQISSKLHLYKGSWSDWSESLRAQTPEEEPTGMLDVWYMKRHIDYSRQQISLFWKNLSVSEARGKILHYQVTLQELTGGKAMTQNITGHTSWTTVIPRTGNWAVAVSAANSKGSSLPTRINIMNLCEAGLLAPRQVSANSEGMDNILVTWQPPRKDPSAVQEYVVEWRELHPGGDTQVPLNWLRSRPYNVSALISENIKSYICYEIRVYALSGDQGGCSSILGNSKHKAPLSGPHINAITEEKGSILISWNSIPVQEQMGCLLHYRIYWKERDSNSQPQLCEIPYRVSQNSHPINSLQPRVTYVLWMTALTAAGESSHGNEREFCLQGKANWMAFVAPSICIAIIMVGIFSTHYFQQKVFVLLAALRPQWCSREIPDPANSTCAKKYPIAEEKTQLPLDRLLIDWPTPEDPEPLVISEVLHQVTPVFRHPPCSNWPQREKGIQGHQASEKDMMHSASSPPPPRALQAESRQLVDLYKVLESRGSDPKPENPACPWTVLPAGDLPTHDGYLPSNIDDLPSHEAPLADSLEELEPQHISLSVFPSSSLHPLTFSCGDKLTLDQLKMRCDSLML
# Test Method Notes: FACS, periplasmic extract, HEK-293T
Observation Type: FOB (fold)

VHH13B2 (VHH) VHH: QVQLVESGGGLVRPGGSLRLSCAASGFTFSSNGMHWFRQAPGKGLEWVSSIGSGGTSIYYADSVKGRFTISRDNAKNTLYLQMNSLKSDDTAVYYCSKEVTGATRGQGTQVTVSS	1.77
VHH289B2 (VHH) VHH: QVQLVESGGGLVQAGGSLKLSCAASGGTFSSYAMGWFRQAPGKEREFVAAIMRSGGTTVYVNSVKGRFTVSRDNAKNTVYLQMNSLKPEDAAVYYCAAGRPVSRTSYYTYTYPHDYDYWGQGTQVSVSS	1.91
VHH361B2 (VHH) VHH: QVQLVESGGGLVQTGASLRLSCAASGRTFGRYEMAWFRQAPGKEREFVAHISSSGLTTTYADSVKGRFTISRGNALNTVYLQMNSLKPEDTAVYYCAANVDGSAWSTLGAGMDYWGKGTLVTISS	2.16
VHH230B2 (VHH) VHH: QVQLVESGGGLVQAGGSLRLSCAASGRTFSSYAMGWFRQAPGKEREFVSAISWSGLSTYYVESVQGRFTISRDNAKNTVYLQMNSLKPEDTAVYYCAASRIYTNYVARSYEYDDWGQGTQVTVSS	2.05
